Molecular target: S. cerevisiae Rpn14 (recombinant) (S. cerevisiae, UniProt P53196 1-417)
Sequence (P53196 whole entry): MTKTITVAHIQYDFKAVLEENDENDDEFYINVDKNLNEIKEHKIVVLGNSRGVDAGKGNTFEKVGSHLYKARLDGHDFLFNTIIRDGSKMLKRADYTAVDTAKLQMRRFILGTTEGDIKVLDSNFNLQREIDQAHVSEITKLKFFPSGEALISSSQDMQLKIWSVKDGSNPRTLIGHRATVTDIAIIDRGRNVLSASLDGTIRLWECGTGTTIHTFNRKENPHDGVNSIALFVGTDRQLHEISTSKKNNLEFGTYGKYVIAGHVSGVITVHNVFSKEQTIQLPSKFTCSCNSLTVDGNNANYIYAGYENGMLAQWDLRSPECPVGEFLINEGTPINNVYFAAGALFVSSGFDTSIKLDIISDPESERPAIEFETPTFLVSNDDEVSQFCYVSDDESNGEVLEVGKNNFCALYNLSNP
Test: AUC
VALUE TYPE: pKd
The scale used: pKd is minus the common logarithm of the concentration in molar units.

Dear colleague, I am looking for the recorded pKd of the following binder: Rpt6-C G^360,387A (domain or fragment, S. cerevisiae, UniProt Q01939 318-405, looked up) PPSVAARAEILRIHSRKMNLTRGINLRKVAEKMNGCSGADVKAVCTEAGMYALRERRIHVTQEDFELAVAKVMNKNQETAISVAKLFK 11.00
